- STUDY_TARGET: membrane PD-L1 (Homo sapiens, UniProt Q9NZQ7)
- Construct: Alexa Fluor® 647 Rabbit monoclonal Anti-PD-L1 (ab215251); endogenous in cells; host or cells: HT-29, MCF-7, A-549 (A17: MCF-7 only; A14: IFN-gamma-stimulated cancer cells co-cultured with Jurkat T cells)
- Sequence (Q9NZQ7 19-290): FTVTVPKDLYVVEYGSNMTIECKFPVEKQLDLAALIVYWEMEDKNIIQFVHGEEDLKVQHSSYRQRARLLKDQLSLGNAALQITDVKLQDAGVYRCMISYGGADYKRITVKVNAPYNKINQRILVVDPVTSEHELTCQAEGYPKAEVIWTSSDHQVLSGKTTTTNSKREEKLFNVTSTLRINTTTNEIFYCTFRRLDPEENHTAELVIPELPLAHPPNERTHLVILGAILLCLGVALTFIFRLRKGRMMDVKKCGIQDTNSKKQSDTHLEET
- ASSAY_NAME: Membrane PD-L1 relative quantification by flow cytometry in cancer cells co-cultured with Jurkat T cells
- Format: cell-based
- MEASUREMENT_CONTEXT: Jurkat, 24 h, HT29 co-cultured with Jurkat T cells, relative to non-treated co-cultures, read-out: % PDL1 (membrane)
Note to self: remaining activity at 100 µM under 90% means 1.0, ties and anything higher get 0.0.

>>> assigned_class("COc1ccc(C(OCCc2ccc(CCn3cc(-c4cccc(Br)c4)nn3)cc2)(c2ccccc2)c2ccc(OC)cc2)cc1")
0.0
>>> assigned_class("COc1ccc(C(OCCc2ccc(CCn3cc(-c4ccc(Br)cc4)nn3)cc2)(c2ccccc2)c2ccc(OC)cc2)cc1")
1.0
>>> assigned_class("COc1ccc(C(OCCc2ccc(CCn3cc(-c4cccc(OC)c4)nn3)cc2)(c2ccccc2)c2ccc(OC)cc2)cc1")
0.0
>>> assigned_class("OCCc1ccc(CCn2cc(-c3ccccc3Br)nn2)cc1")
1.0
